Answer each item with its documented pIC50.
ASSAY_TARGET: D(1A) dopamine receptor (Rattus norvegicus, UniProt P18901)
Sequence (P18901 whole entry): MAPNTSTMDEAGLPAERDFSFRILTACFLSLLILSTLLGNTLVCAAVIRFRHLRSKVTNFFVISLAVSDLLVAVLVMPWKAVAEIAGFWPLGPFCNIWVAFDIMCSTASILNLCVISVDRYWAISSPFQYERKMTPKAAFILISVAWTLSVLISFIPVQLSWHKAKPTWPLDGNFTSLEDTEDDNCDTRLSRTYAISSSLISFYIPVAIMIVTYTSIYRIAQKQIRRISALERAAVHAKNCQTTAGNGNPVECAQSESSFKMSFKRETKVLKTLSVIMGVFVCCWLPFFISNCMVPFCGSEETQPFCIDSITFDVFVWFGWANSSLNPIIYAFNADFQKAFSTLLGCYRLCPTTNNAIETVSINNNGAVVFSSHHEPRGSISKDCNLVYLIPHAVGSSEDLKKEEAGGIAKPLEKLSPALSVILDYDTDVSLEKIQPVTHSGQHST
PROTOCOL: Displacement of [3H]SCH23390 from dopamine D1 receptor in Wistar rat striatal membrane by liquid scintillation counting
pIC50: −log10 of the molar value.

Worked examples follow.
| SMILES_REPRESENTATION | ASSAY_READOUT | OBSERVED_MEASUREMENT |
| --- | --- | --- |
| COc1cc2c(cc1OC)[C@@H](Cc1ccc(OC)c(Oc3ccc(C[C@H]4NCCc5cc(OC)c(OC)cc54)cc3)c1)N(C)CC2 | pIC50 | < 4.00 |
| COc1ccc(C=O)cc1Oc1ccc(C[C@H]2c3c(cc(OC)c(OC)c3Oc3cc4c(cc3OC)CCN(C)C4=O)CCN2C)cc1 | pIC50 | < 4.52 |

[Q] # input molecule: "COc1cc2c(cc1OC)[C@@H](Cc1ccc(Oc3cc(C[C@@H]4c5cc(OC)c(OC)cc5CCN4C)ccc3OC)cc1)N(C)CC2" ; wanted: its pIC50
[A] < 4.00

* * *

ASSAY_TARGET: D(1A) dopamine receptor (Rattus norvegicus, UniProt P18901)
PROTOCOL: Displacement of [3H]SCH23390 from dopamine D1 receptor in Wistar rat striatal membrane by liquid scintillation counting
pIC50: −log10 of the molar value.
I'd be grateful if you could share measured pIC50 for these entries.

Worked examples, 2 compounds total:
| SMILES_REPRESENTATION | pIC50 |
| --- | --- |
| COc1ccc(C[C@H]2c3c(cc(OC)c4c3Oc3cc5c(cc3O4)CCN(C)C5=O)CCN2C)cc1-c1cc(C=O)ccc1O | < 4.00 |
| COc1cc2c(cc1Oc1c(O)c(OC)cc3c1[C@H](Cc1ccc(OC)c(-c4cc(C=O)ccc4O)c1)N(C)CC3)C(=O)N(C)CC2 | < 4.52 |

Now, please, on to the next compound.
[Q] GET /values?readout=pIC50&item= "COc1cc2c3cc1Oc1c(O)c(OC)cc4c1[C@H](Cc1ccc(OC)c(c1)-c1cc(ccc1O)C[C@H]3N(C)CC2)N(C)CC4"
[A] < 4.00
